Each entry below carries its reported TGI.
Test system: MDA-MB-435
Assay: NCI tumour cell line growth inhibition, 48 h
assay readout: TGI (µM)

INSERT INTO results (compound, reading_qualifier, obs_value) VALUES
  ('CCOC(=S)SCC(=O)O', '>', 100),
  ('CC1=C2C(=C[C@@](C)(CO)[C@@H]2O)C(=O)[C@](C)(O)C12CC2', '=', 0.0312),
  ('C=C1CCN2CC[C@@H](OC(=O)/C(C)=C\C)[C@@H]12', '>', 100),
  ('COc1ccc(-c2[nH]c3c4c(nc5c(c24)C(=O)CC(C)(C)C5)CC(C)(C)C3)cc1', '>', 100),
  ('O=C(Oc1ccc(Cl)cc1)c1ccccc1Nc1ccnc(C(F)(F)F)c1', '=', 4.87),
  ('C[C@]12CCC3c4ccc(O)cc4CCC3C1CC[C@@]2(O)CNC(=O)/C=C/c1ccc(O)c(O)c1 (stereo partly specified)', '=', 8.07);
